Recorded values, source ChEMBL document CHEMBL1140651.

# Tested on: Caco-2
# experimental_protocol: Ratio of permeability from basolateral to apical over apical to basolateral side of the Caco-2 cell membrane
# Format: ADME, cell-based
# test_settings: human
Note to self: use 1.0 only for Ratio readings below 10; a reading exactly at 10 still gets 0.0.

Answered cases to consult:
{"columns": ["compound", "cat"],
 "data": [
  ["CS(=O)(=O)N(CC1CCCO1)c1c(Cl)c(Cl)cc2[nH]c(=O)c(=O)[nH]c12 (stereo not given)", 1.0],
  ["CCOCCOCCN(c1c(Cl)c(Cl)cc2[nH]c(=O)c(=O)[nH]c12)S(C)(=O)=O", 0.0],
  ["COCCCN(c1cc(Cl)cc2[nH]c(=O)c(=O)[nH]c12)S(C)(=O)=O", 1.0],
  ["COCCCN(c1c(Cl)c(Cl)cc2[nH]c(=O)c(=O)[nH]c12)S(C)(=O)=O", 1.0]
]}

Consider now this further compound.
Request: Lab note: Ratio threshold 10. Does this compound come in strictly under it? COCCN(c1c(Cl)c(C)cc2[nH]c(=O)c(=O)[nH]c12)S(C)(=O)=O
Response: 0.0

---

# experimental_protocol: Solubility of the compound
# Type: physicochemical
Measured solubility, listed per entry for reference.
Give the value in µg/mL but do not write µg/mL after it.

{"columns": ["compound", "solubility [µg/mL]"],
 "data": [
  ["CCOCCCN(c1c(Cl)c(Cl)cc2[nH]c(=O)c(=O)[nH]c12)S(C)(=O)=O", 82],
  ["CS(=O)(=O)N(CCCO)c1c(Cl)c(Cl)cc2[nH]c(=O)c(=O)[nH]c12", 76],
  ["Cc1cc2[nH]c(=O)c(=O)[nH]c2c(N(CC(=O)O)S(C)(=O)=O)c1Cl", 72],
  ["CCOCCOCCN(c1c(Cl)c(Cl)cc2[nH]c(=O)c(=O)[nH]c12)S(C)(=O)=O", 88],
  ["CS(=O)(=O)N(CC1CCCO1)c1c(Cl)c(Cl)cc2[nH]c(=O)c(=O)[nH]c12 (stereo unspecified)", 16],
  ["Cc1cc2[nH]c(=O)c(=O)[nH]c2c(N(CCO)S(C)(=O)=O)c1Cl", 70],
  ["CCOCCN(c1c(Cl)c(Cl)cc2[nH]c(=O)c(=O)[nH]c12)S(C)(=O)=O", 79],
  ["CS(=O)(=O)N(CCC(F)(F)F)c1c(Cl)c(Cl)cc2[nH]c(=O)c(=O)[nH]c12", 56]
]}

Request: Which solubility is listed for CCc1cc2[nH]c(=O)c(=O)[nH]c2c(N(CCCOC)S(C)(=O)=O)c1Cl ?
Response: 78

Request: Which solubility is listed for COCCN(c1c(Cl)c(Cl)cc2[nH]c(=O)c(=O)[nH]c12)S(C)(=O)=O ?
Response: 76

---

# target: UniProtKB Q05586
# experimental_protocol: Antagonist activity at human NMDA NR1 receptor
Measured pIC50, listed per entry for reference.
Interpret pIC50 as the negative base-10 log of the concentration measured in mol/L.

{"columns": ["molecule", "numeric_readout"],
 "data": [
  ["CS(=O)(=O)N(CC1CCCCO1)c1c(Cl)c(Cl)cc2[nH]c(=O)c(=O)[nH]c12 (centres undefined)", 7.41],
  ["COc1cccc(CN(c2c(Cl)c(Cl)cc3[nH]c(=O)c(=O)[nH]c23)S(C)(=O)=O)c1", 7.92],
  ["Cc1cc2[nH]c(=O)c(=O)[nH]c2c(N(CCO)S(C)(=O)=O)c1Cl", 8.40]
]}

Request: Reported pIC50 for UniProtKB Q05586, given Cc1c(Cl)cc2[nH]c(=O)c(=O)[nH]c2c1N(CC(=O)O)S(C)(=O)=O ?
Response: 8.70

Request: Reported pIC50 for UniProtKB Q05586, given COCCN(c1c(Cl)c(Cl)cc2[nH]c(=O)c(=O)[nH]c12)S(C)(=O)=O ?
Response: 7.42

---

Measured bioavailability, listed per entry for reference.
# experimental_protocol: Bioavailability in Sprague-Dawley rat at 5 mg/kg, po
# Format: ADME, organism-based
# test_settings: Sprague-Dawley, in vivo
Give the value in % but do not write % after it.

Request: Which bioavailability is listed for CS(=O)(=O)N(CC1CCCO1)c1c(Cl)c(Cl)cc2[nH]c(=O)c(=O)[nH]c12 (stereo not given) ?
Response: 31

Request: Which bioavailability is listed for Cc1cc2[nH]c(=O)c(=O)[nH]c2c(N(CC(=O)O)S(C)(=O)=O)c1Cl ?
Response: 5

Request: Which bioavailability is listed for CCc1c(Cl)cc2[nH]c(=O)c(=O)[nH]c2c1N(CCO)S(C)(=O)=O ?
Response: 1

Request: Which bioavailability is listed for CS(=O)(=O)N(Cc1cccc(F)c1)c1c(Cl)c(Cl)cc2[nH]c(=O)c(=O)[nH]c12 ?
Response: 10

Request: Which bioavailability is listed for CCOCCOCCN(c1c(Cl)c(Cl)cc2[nH]c(=O)c(=O)[nH]c12)S(C)(=O)=O ?
Response: 90

Request: Which bioavailability is listed for CCOCCN(c1c(Cl)c(Cl)cc2[nH]c(=O)c(=O)[nH]c12)S(C)(=O)=O ?
Response: 78

Request: Which bioavailability is listed for Cc1c(Cl)cc2[nH]c(=O)c(=O)[nH]c2c1N(CC(=O)O)S(C)(=O)=O ?
Response: 7

Request: Which bioavailability is listed for Cc1c(Cl)cc2[nH]c(=O)c(=O)[nH]c2c1N(CCO)S(C)(=O)=O ?
Response: 4

Request: Which bioavailability is listed for CC(O)CN(c1c(Cl)c(Cl)cc2[nH]c(=O)c(=O)[nH]c12)S(C)(=O)=O (stereo not given) ?
Response: 1

---

# experimental_protocol: Permeability from apical to basolateral side of the Caco-2 cell membrane
# Type: ADME, cell-based
# test_settings: human, read-out: permeability
attribute_measured: Papp A→B (nm/s)
Give the value in nm/s but do not write nm/s after it.

Worked set:
{"columns": ["compound", "Papp A→B, nm/s"],
 "data": [
  ["CCOCCN(c1c(Cl)c(Cl)cc2[nH]c(=O)c(=O)[nH]c12)S(C)(=O)=O", 100],
  ["COc1cccc(CN(c2c(Cl)c(Cl)cc3[nH]c(=O)c(=O)[nH]c23)S(C)(=O)=O)c1", 34.3],
  ["CCOCCOCCN(c1c(Cl)c(Cl)cc2[nH]c(=O)c(=O)[nH]c12)S(C)(=O)=O", 9.7]
]}

Request: Which Papp A→B is listed for COCCN(c1c(Cl)c(C)cc2[nH]c(=O)c(=O)[nH]c12)S(C)(=O)=O ?
Response: 1.4

Request: Which Papp A→B is listed for COCCCN(c1cc(Cl)cc2[nH]c(=O)c(=O)[nH]c12)S(C)(=O)=O ?
Response: 0.1

---

Measured Ratio, listed per entry for reference.
# Test system: Caco-2
# experimental_protocol: Ratio of permeability from basolateral to apical over apical to basolateral side of the Caco-2 cell membrane
# Assay type: ADME, cell-based
# test_settings: human
Give your answer as a number; write no unit.

Worked set:
{"columns": ["structure_smiles_string", "numeric_readout"],
 "data": [
  ["COc1cccc(CN(c2c(Cl)c(Cl)cc3[nH]c(=O)c(=O)[nH]c23)S(C)(=O)=O)c1", 4.67],
  ["CCOCCCN(c1c(Cl)c(Cl)cc2[nH]c(=O)c(=O)[nH]c12)S(C)(=O)=O", 28.4],
  ["CS(=O)(=O)N(CCC(F)(F)F)c1c(Cl)c(Cl)cc2[nH]c(=O)c(=O)[nH]c12", 15],
  ["CCOCCN(c1c(Cl)c(Cl)cc2[nH]c(=O)c(=O)[nH]c12)S(C)(=O)=O", 1.38]
]}

The record that follows has no Ratio shown yet.
Request: Which Ratio is listed for CS(=O)(=O)N(Cc1cccc(F)c1)c1c(Cl)c(Cl)cc2[nH]c(=O)c(=O)[nH]c12 ?
Response: 4.07

---

# target: Glutamate receptor ionotropic, NMDA 1 (Homo sapiens)
# experimental_protocol: Antagonist activity at human NMDA NR1 receptor
# Type: functional
pIC50: −log10 of the molar value.
Decide using pIC50: a value greater than or equal to 7 is label 1, a smaller one is label 0.

Request: Could you tell me if the measured pIC50 of CCOCCCN(c1c(Cl)c(Cl)cc2[nH]c(=O)c(=O)[nH]c12)S(C)(=O)=O reaches 7 or more?
Response: label 1

Request: Could you tell me if the measured pIC50 of CS(=O)(=O)N(CCCO)c1c(Cl)c(Cl)cc2[nH]c(=O)c(=O)[nH]c12 reaches 7 or more?
Response: label 1

Request: Could you tell me if the measured pIC50 of CCOCCOCCN(c1c(Cl)c(Cl)cc2[nH]c(=O)c(=O)[nH]c12)S(C)(=O)=O reaches 7 or more?
Response: label 0

Request: Could you tell me if the measured pIC50 of CS(=O)(=O)N(Cc1cccc(F)c1)c1c(Cl)c(Cl)cc2[nH]c(=O)c(=O)[nH]c12 reaches 7 or more?
Response: label 1

Request: Could you tell me if the measured pIC50 of COCCCN(c1cc(Cl)cc2[nH]c(=O)c(=O)[nH]c12)S(C)(=O)=O reaches 7 or more?
Response: label 0
